Source of measurements: the SangsterLogP compilation

testSummary: method code SF-AS, from PMID: 754638
measuredParameter: logP
Give only the figure.

For orientation, consider the following solved cases.
CCCS(=O)(=O)c1cc(OC)c(OC)c(OC)c1 | 1.56
COc1cc(S(=O)(=O)CCC(C)C)cc(OC)c1OC | 2.12

Query string: Give logP for `COc1cc(S(=O)(=O)CCN2CCOCC2)cc(OC)c1OC`
Result string: 1.29

Query string: Give logP for `COc1cc(S(=O)(=O)CCO)cc(OC)c1OC`
Result string: 0.18

Query string: Give logP for `C=CCS(=O)(=O)c1cc(OC)c(OC)c(OC)c1`
Result string: 1.34

Query string: Give logP for `CCS(=O)(=O)c1cc(OC)c(OC)c(OC)c1`
Result string: 1.05

Query string: Give logP for COc1cc(S(=O)(=O)CC(O)c2ccccc2)cc(OC)c1OC (configuration not stated)
Result string: 1.65

###

testSummary: method code SF-AS, from PMID: 754638
statedConditions: pH 7.3
The reader will find reported logD values listed item by item below.
Give only the figure.

CCCCN(C)CCS(=O)(=O)c1cc(OC)c(OC)c(OC)c1 | 2.05

Attention now shifts to the item below.
Query string: Give logD for `COc1cc(S(=O)(=O)CCN2CCCCC2)cc(OC)c1OC`
Result string: 1.6
